Molecular target: sigma receptors
Test: Sigma receptor binding, rat liver preparations
Conditions: crude liver homogenates
value.type: IC50

Can you look up the measured IC50 of c1ccc2c(c1)CC1CCCN3CCCC2C13 (stereo not drawn) [unsubstituted (trans,trans) OHNQ] for me? 157 nM

* * *

Target: sigma receptors
Assay: Sigma binding assay, (3H)-haloperidol, bovine cerebellar homogenates
Conditions: bovine cerebellar preparation, 2.0 nM (3H)-haloperidol, 25 nM spiperone
value.type: IC50 (µM)
A number alone suffices; assume µM.

Can you look up the measured IC50 of COc1ccc2c(c1)C1CCCN3CCCC(C2)C13 (stereo not shown) [11-methoxy OHNQ] for me? 1.5

* * *

Biological target: sigma receptors
Assay: Sigma receptor binding, rat liver preparations
Conditions: solubilized rat liver preparations
value.type: pIC50
Interpret pIC50 as the negative base-10 log of the concentration measured in mol/L.

Can you look up the measured pIC50 of c1ccc2c(c1)CC1CCCN3CCCC2C13 (stereo not drawn) [unsubstituted (trans,trans) OHNQ] for me? 7.06
